Measured CC50 accompanies every entry in the list below.
- Assay Details: Cytotoxicity against human MT4 cells by MTT assay
- Assay type: cell-based
I only need the number, in µM, no unit after it.

O=C1CSC(c2c(Br)cccc2Br)N1Cc1ccccn1 (stereo not drawn) :: 174
Cc1nc(N2C(=O)CSC2c2c(Br)cccc2Br)nc(C)c1C (stereo not drawn) :: 227

In the following, a different compound is considered.
# input Data request, read-out CC50, for O=C1CSC(c2c(Br)cccc2Br)N1c1cccc(C(F)(F)F)n1 (stereo not drawn)
# output 30

* * *

Below, each entry is listed with its recorded selectivity ratio.
- Assay Details: Selectivity index, ratio of CC50 for human MT4 cells to EC50 for HIV1 3B
- Assay type: toxicity, cell-based
- Particulars: read-out: Ratio CC50/EC50
// keep it numeric: no unit symbol after the value

Cc1nc(N2C(=O)CSC2c2c(Br)cccc2Br)nc(C)c1C (configuration not stated) :: 3720

# input What value of selectivity ratio has been reported for the following compound? O=C1CSC(c2c(Br)cccc2Br)N1c1cccc(C(F)(F)F)n1 (configuration not stated)
# output 7

# input Could you share which selectivity ratio value was measured for Cc1cc(C(F)(F)F)nc(N2C(=O)CSC2c2c(Br)cccc2Br)n1 (configuration not stated) ?
# output 99

# input Can you share its selectivity ratio? I mean this compound: O=C1CSC(c2c(Br)cccc2Br)N1Cc1cccs1 (configuration not stated)
# output 59

# input Need selectivity ratio of O=C1CSC(c2c(Br)cccc2Br)N1c1ncccn1 (configuration not stated) , thanks.
# output 687

# input I would be grateful if you could share the reported selectivity ratio for O=C1CSC(c2c(Br)cccc2Br)N1c1ccccn1 (configuration not stated) .
# output 60

# input Requested read-out: selectivity ratio. Entry: Clc1cccc(Cl)c1C1SCc2nc3ccccc3n21 (configuration not stated)
# output 16

# input Look at this compound and give its reported selectivity ratio. Cc1ccnc(N2C(=O)CSC2c2c(Br)cccc2Br)n1 (configuration not stated)
# output 757

# input So what's the measured selectivity ratio for this one? Cc1cc(N2C(=O)CSC2c2c(Br)cccc2Br)nc(C)n1 (configuration not stated)
# output 6

# input # selectivity ratio lookup, item O=C1CSC(c2c(Br)cccc2Br)N1c1nccs1 (configuration not stated)
# output 218

# input What value of measured selectivity ratio is listed for Cc1cccc(N2C(=O)CSC2c2c(Br)cccc2Br)n1 (configuration not stated) ?
# output 2660

* * *

- Tested on: Human immunodeficiency virus 1
- Assay Details: Antiviral activity against HIV1 3B replication in human CEM cells assessed as inhibition of virus-induced syncytium formation after 4 days
- Particulars: Human immunodeficiency virus 1, 3B, CCRF-CEM, 96 h
Property: EC50; scope: individual molecules

Cc1cc(C(F)(F)F)nc(N2C(=O)CSC2c2c(Br)cccc2Br)n1 (stereo not drawn) :: 360 nM
Cc1ccnc(N2C(=O)CSC2c2c(Br)cccc2Br)n1 (stereo not drawn) :: 40 nM
O=C1CSC(c2c(Br)cccc2Br)N1c1ncccn1 (stereo not drawn) :: 230 nM
O=C1CSC(c2c(Br)cccc2Br)N1c1nccs1 (stereo not drawn) :: 560 nM
O=C1CSC(c2c(Br)cccc2Br)N1Cc1cccs1 (stereo not drawn) :: 600 nM

# input Look up EC50 with Human immunodeficiency virus 1 for this molecule: O=C1CSC(c2c(Br)cccc2Br)N1Cc1ccco1 (stereo not drawn)
# output 180 nM

# input Notebook entry, Human immunodeficiency virus 1 assay: EC50 of O=C1CSC(c2c(Br)cccc2Br)N1Cc1ccccn1 (stereo not drawn) = ?
# output 630 nM

# input Query EC50 on Human immunodeficiency virus 1 for O=C1CSC(c2c(Br)cccc2Br)N1c1cccc(C(F)(F)F)n1 (stereo not drawn)
# output 3960 nM

* * *

Below: a set of entries, each annotated with reported CC50.
- Assay Details: Cytotoxicity against human MT4 cells by MTT assay
- Format: cell-based
# number only, unit µM dropped from output

Here is how some compounds turned out for CC50.
Cc1cc(N2C(=O)CSC2c2c(Br)cccc2Br)nc(C)n1 (configuration not stated) :: 33.4
O=C1CSC(c2c(Br)cccc2Br)N1c1nccs1 (configuration not stated) :: 109
Cc1cc(-c2ccccc2)nc(N2C(=O)CSC2c2c(Br)cccc2Br)n1 (configuration not stated) :: 184

# input I am curious: what CC50 value has been reported for O=C1CSC(c2c(Br)cccc2Br)N1Cc1ccco1 (configuration not stated) ?
# output 36.4

# input Fill blank: measured CC50 of the compound Cc1ccnc(N2C(=O)CSC2c2c(Br)cccc2Br)n1 (configuration not stated) is ____.
# output 33.9

# input Using the record for O=C1CSC(c2c(Br)cccc2Br)N1c1ccccn1 (configuration not stated) , report its CC50.
# output 13.1

# input Give its CC50 value. Item: Cc1cc(C(F)(F)F)nc(N2C(=O)CSC2c2c(Br)cccc2Br)n1 (configuration not stated)
# output 32.6

# input Fill blank: measured CC50 of the compound Cc1nc(N2C(=O)CSC2c2c(Br)cccc2Br)ccc1Br (configuration not stated) is ____.
# output 98

# input Returns the measured CC50 for the input compound. Input: O=C1CSC(c2c(Br)cccc2Br)N1c1ncccn1 (configuration not stated)
# output 172

# input // lookup CC50 for Cc1cccc(N2C(=O)CSC2c2c(Br)cccc2Br)n1 (configuration not stated)
# output 233

# input Given O=C1CSC(c2c(Br)cccc2Br)N1Cc1cccs1 (configuration not stated) , state its recorded CC50.
# output 34.6

* * *

- Assay System: Human immunodeficiency virus type 1 reverse transcriptase (Human immunodeficiency virus 1) (UniProt Q72547)
- Assay Details: Inhibition of HIV1 reverse transcriptase at 100 ug/ml after 1 hr by microtiter plate ELISA
Parameter Measured: inhibition (%)
Write it as a number; the unit % goes unstated.

Past entries and their recorded results:
O=C1CSC(c2c(Br)cccc2Br)N1Cc1ccco1 (stereo not drawn) :: 99
O=C1CSC(c2c(Br)cccc2Br)N1c1nccs1 (stereo not drawn) :: 69.5

Lab note: next molecule to report on.
# input I have this molecule here, Cc1nc(N2C(=O)CSC2c2c(Br)cccc2Br)nc(C)c1C (stereo not drawn) , and I need its recorded inhibition.
# output 100

* * *

- Assay Details: Selectivity index, ratio of CC50 for human CEM cells to EC50 for HIV1 3B
- Format: toxicity, cell-based, CCRF-CEM
- Particulars: read-out: Ratio CC50/EC50
Reported selectivity ratio values follow for various compounds

// worked examples, selectivity ratio included
O=C1CSC(c2c(Br)cccc2Br)N1Cc1ccccn1 (stereo not drawn) :: 283
Cc1cc(C(F)(F)F)nc(N2C(=O)CSC2c2c(Br)cccc2Br)n1 (stereo not drawn) :: 161

# input Suppose we examine the compound O=C1CSC(c2c(Br)cccc2Br)N1c1nccs1 (stereo not drawn) ; what selectivity ratio value has been reported?
# output 194

* * *

- Assay Details: Selectivity index, ratio of CC50 for human MT4 cells to EC50 for HIV1 3B
- Type: toxicity, cell-based
- Particulars: read-out: Ratio CC50/EC50
Parameter Measured: selectivity ratio

Observe how each entry below is paired with its result.
Cc1ccnc2c1NC(=O)c1cccnc1N2C1CC1 :: > 1000
Cc1cc(-c2ccccc2)nc(N2C(=O)CSC2c2c(Br)cccc2Br)n1 (stereo unspecified) :: < 21
Cc1nc(N2C(=O)CSC2c2c(Br)cccc2Br)ccc1Br (stereo unspecified) :: 96

# input Could you tell me which selectivity ratio is on file for O=C1CSC(c2c(Br)cccc2Br)N1Cc1ccco1 (stereo unspecified) ?
# output 171

# input Look up selectivity ratio for this compound: Fc1cccc(F)c1C1SCc2nc3ccccc3n21 (stereo unspecified)
# output 54.5

# input Given O=C1CSC(c2c(Br)cccc2Br)N1Cc1ccccn1 (stereo unspecified) , state its recorded selectivity ratio.
# output 209
